I'd appreciate it if you could supply switch fluorescence ratio values for the items below.
- Test system: ATP;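 note: ATP exposure 15 min at 22 °C before imaging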
- protocol-details: switch fluorescence ratio, 500 uM ATP over buffer (Cy3 cluster intensity, sum of 5 cycles each) (fold (ratio)); higher = stronger signal-on switching upon ATP binding; sequences stand for … in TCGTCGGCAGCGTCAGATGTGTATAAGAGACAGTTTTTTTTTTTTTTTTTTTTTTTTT…TC
- experimental-setup: aptamer strand: ATP DNA aptamer (quencher-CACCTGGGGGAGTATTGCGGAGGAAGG + anchor), 100 nM annealed; ATP concentration: 500 uM
Please reply with the number alone, leaving off any unit.

Let me know recorded switch fluorescence ratio for TGAAGGAGGG , thanks.
1.02

Give me measured switch fluorescence ratio, please, for this sequence: GTAATCGCAA
2.65

State its switch fluorescence ratio for this sequence: CGAGGGGCCC
1.01

Identify switch fluorescence ratio associated with the sequence TGAGGGGTAA
0.993

Could you please provide reported switch fluorescence ratio for TTATCCGAGA ? Thanks!
1.04

Recall and state the measured switch fluorescence ratio for TTGGGCTGGG .
1.01

Supply switch fluorescence ratio value. Item: TACTGCATAG
1.04

Indicate the recorded switch fluorescence ratio value for this sequence: TTCCTTTTTA
1.02

Read the entry TATCGTCGGG and write its reported switch fluorescence ratio.
1.01

Query switch fluorescence ratio for TTATGTATAT
1.01

For the sequence GTTAAAAAGG , report switch fluorescence ratio.
0.998

Answer with reported switch fluorescence ratio of TATTGCTTTC
1.03

Fill in reported switch fluorescence ratio for this entry: TTGGGTGATC
1.01

Quick one: give measured switch fluorescence ratio for AGTCTCTCAT
0.992

In one line, give reported switch fluorescence ratio of the entry CGGGGGTCCA .
1.01

// fetch switch fluorescence ratio given entry ATTCTTCTCA
1.02

State its switch fluorescence ratio: CTGCGGTAAA
0.97

Item ACACGTTTTT : provide switch fluorescence ratio
1

Fill in switch fluorescence ratio for record TTGTTTTCTT
1

Specify reported switch fluorescence ratio for the sequence shown: GAGGCAGGGG
1.04

Answer with reported switch fluorescence ratio of TGCTTTTTA
0.971

In one line, give reported switch fluorescence ratio of the entry GGGGCTTACG .
0.989

Could you please provide reported switch fluorescence ratio for GTTAAATTCA ? Thanks!
1

Entry ACTTGTGACA needs its switch fluorescence ratio filled in; supply it.
1.12

Give reported switch fluorescence ratio value for TTGAGAAAGT
1.47

Supply measured switch fluorescence ratio of TGCGTGGGGA in your reply.
1.04

Please supply the value of reported switch fluorescence ratio for the item TAAAAAGCAT
1.01

Quote switch fluorescence ratio reported for TAGTCATTCA please.
0.981

Read the entry ATTGCATGAG and write its reported switch fluorescence ratio.
1

Give switch fluorescence ratio for GGACGGGGTT
0.97

Give a short answer stating reported switch fluorescence ratio for ATTAATGTGA .
1

Assign switch fluorescence ratio to the following record: ACGGGGTGTT
1

Entry ACTGGTTGGG needs its switch fluorescence ratio filled in; supply it.
0.966

Give switch fluorescence ratio for the following sequence: ACATGAGGGA
1.02

Give the measured switch fluorescence ratio for TAGGGGGTGG
1

Assign switch fluorescence ratio to the following record: TTGAGGGAGA
1.02

For the sequence CAGTATTAGA , report switch fluorescence ratio.
1

Indicate the recorded switch fluorescence ratio value for this sequence: TAGTAAAGGT
1.02

Entry TTCGTCAGTT needs its switch fluorescence ratio filled in; supply it.
0.999

Provide switch fluorescence ratio value for the following sequence: AAGTTCGCCA
0.994

Identify measured switch fluorescence ratio corresponding to TTTAAGTAGG
1.02

For the sequence ATGGGAAGTC , give its reported switch fluorescence ratio.
0.992

Kindly indicate its recorded switch fluorescence ratio. Item: GCATCAATTT
1.02

Give a short answer stating reported switch fluorescence ratio for CAGTGGACCG .
1

Answer with the recorded switch fluorescence ratio of TGGTATATT only.
0.986

Kindly indicate its recorded switch fluorescence ratio. Item: ATCTTTGTGT
1.01

Determine its reported switch fluorescence ratio: GGTTTCGGCA
1.01

Return switch fluorescence ratio for the following sequence: GCCCGGGGTA
1.09

Report switch fluorescence ratio for TGGGGTTTCG
0.973

State, in one line, measured switch fluorescence ratio of TTTTACGTGG
0.994

Quote switch fluorescence ratio reported for TGCATTTTGT please.
0.989

Specify measured switch fluorescence ratio for ACTTAAGTAG .
0.987

Identify the reported switch fluorescence ratio for the following entry. AATAAGCTCG
0.979

Return switch fluorescence ratio for the following sequence: TAGTTTTGGG
0.981

Tell me its switch fluorescence ratio given CCACTGGGCG as the entry.
1.07

For the sequence TACAAAGGGA , give its reported switch fluorescence ratio.
1.01

In one line, give reported switch fluorescence ratio of the entry TTTTTGGTTA .
1

Provide one value: measured switch fluorescence ratio of AGGGATTCCG
1

Specify measured switch fluorescence ratio for CGGAGTTATC .
1.35

Tell me its switch fluorescence ratio given ACTTTATGTT as the entry.
1.04

Please give the documented switch fluorescence ratio of CTGTCTATGC
1.33

Please report switch fluorescence ratio for the following sequence: GATTGAAAGG
0.957

State, in one line, measured switch fluorescence ratio of TTGGTTCCGT
1.01

Specify reported switch fluorescence ratio for the sequence shown: AATGGTGGGG
0.991

Identify measured switch fluorescence ratio corresponding to GGGATAAGGG
1.01

Consider the sequence AGTTGTACAA and give its recorded switch fluorescence ratio.
1.01

Please look at this sequence and report its switch fluorescence ratio: TTCGGTTGTA
1.01

Indicate its recorded switch fluorescence ratio; the sequence in question is TTTATTATGC
1.03

Return switch fluorescence ratio (reported value) for this sequence: AGATATGGTT
0.994

Quick one: give measured switch fluorescence ratio for CTGGAAGGTG
1.81

Report switch fluorescence ratio, nothing else, for this sequence: GTGGGTAGAG
1

Return reported switch fluorescence ratio. Input sequence: TGGTGTTTTG
0.999

Output measured switch fluorescence ratio for this item: GTTTTAAATG
0.975

Tell me measured switch fluorescence ratio for GTTATCAGAT please.
1.02

Determine its reported switch fluorescence ratio: GATGCCACAG
1.02

State its switch fluorescence ratio: AAGTTTCTG
0.989

Output measured switch fluorescence ratio for this item: AAAAGATCAT
0.999

Give the value of switch fluorescence ratio reported for the following: GTCGTAGGGA
0.973

State, in one line, measured switch fluorescence ratio of TTTGGTGACG
1.09
